Biological target: human GLP-1 receptor (GLP-1R) (human, UniProt P43220 24-463)
Assay: cell-based or functional assay
Numbered stars: 1 amine (or outer) side, 2 acyl side, 3 side chain; on linkers, the order of the positions; unused ones are H or OH. Square brackets hold non-standard residues; d marks the D form. Side chains are listed from the residue outwards. Ends that are not written are not given here. * marks the point of attachment. C20 diacid = O=C(O)CCCCCCCCCCCCCCCCCCC(=O)*; γGlu = O=C(O)[C@H](CCC(=O)[*:2])N[*:1]; AEEA = NCCOCCOCC(=O)O; Aib = CC(C)(N)C(=O)O
Values of hGLP1R cAMP EC50 ratio greater than or equal to 0.8 map to Met; values below map to Not met.

Binder	Label
YXEGTXTSDYSILLDKKAQXAFIEYLIAGGPSSG (Aib2, αMeF6, (2-[2-(2-Amino-ethoxy)-ethoxy]-acetyl)2-(γ-Glu)-CO-(CH2)16-CO2H on K17, Aib20, C-terminal NH2) [Example 309]	Met
XXEGTFTSDYSIXLDKKAQXEFIEYLIAGGPSSGAPPPS (D-Tyr1, Aib2, αMeL13, (2-[2-(2-Amino-ethoxy)-ethoxy]-acetyl)2-(γ-Glu)-CO-(CH2)18-CO2H on K17, Aib20, C-terminal NH2) [Example 290]	Not met
YXEGTFTSDYSIXLDKKAQXEFIEYLIAGGPSSG (Aib2, αMeL13, (2-[2-(2-Amino-ethoxy)-ethoxy]-acetyl)2-(γ-Glu)-CO-(CH2)16-CO2H on K17, Aib20, C-terminal NH2) [Example 306]	Met
F[Aib]EGTFTSDYSILLDKK([AEEA-AEEA-γGlu-C20 diacid])AQ[Aib]AFIEYLIEGGPSSGAPPPS-NH2 [Example 326]	Met
XXEGTFTSDYSIXLDXKAQXAFIXYLIEGGPSSGAPPPS (D-Tyr1, Aib2, αMeL13, Orn16, (2-[2-(2-Amino-ethoxy)-ethoxy]-acetyl)2-(γ-Glu)-CO-(CH2)18-CO2H on K17, Aib20, D-Glu24, C-terminal NH2) [Example 357]	Not met
